Target: T1, recombinant human CD40L (human, UniProt P29965 108-261, limits assumed)
T1 construct: Bought soluble recombinant protein (R&D, HEK, 6420-CL/CF); also called hCD40L; human CD40L (HEK, R&D)
T1 sequence: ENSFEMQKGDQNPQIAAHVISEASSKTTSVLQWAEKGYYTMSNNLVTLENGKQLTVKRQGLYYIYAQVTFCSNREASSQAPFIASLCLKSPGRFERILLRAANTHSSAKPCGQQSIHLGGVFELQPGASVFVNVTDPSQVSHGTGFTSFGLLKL
Test: FACS ligand competition, biotinylated human CD40L on human CD40 HEK cells
Reported % block (maximum observed effect) values are given for each entry in this list.

| binder | % block (maximum observed effect) |
| --- | --- |
| C0100046B03 (VHH, Monovalent Nanobody; tag of the monovalent form not spelled out; also called C01000046B03) VHH: EVQLVESGGGLVQAGGSLRLSCAASGRTPLNYHMAWFRQAPGKEREFVAAISSLLGSTDYSDSLKDRFTISRDNAKATLYLRMNNLKPEDTAVYYCAARETTHYSTSDRVNEMRHYDYWGQGTLVTVSS | 96% |
| C0100044B07 (VHH, Monovalent Nanobody; tag of the monovalent form not spelled out; also called C01000044B07) VHH: EVQLVESGGGLVQPGGRLRLSCAASGFTLDYYALAWFRQAPGKEREGVSCISSSEGSTDYADYADSVKGRFTISRDTAKNTVYLQMNNLKPEDTAVYYCATDETTFFSGSCTLSAATFGSWGQGTLVTVSS | 82% |
| C0100029C10 (VHH, Monovalent Nanobody; tag of the monovalent form not spelled out; also called C01000029C10) VHH: EVQLVESGGGLVQPGGSLRLSCAASGFTLDYYALGWFRQAPGKEREGVSCISSTESSDGSTYYADSVKGRFTISRDSAKNTVYLQMNSLKPEDTAVYYCATDQTLFGVCRGIATPDPGFWGQGTLVTVSS | 98% |
| C0100028B02 (VHH, Monovalent Nanobody produced in P. pastoris (pAX205); Detected with anti-FLAG reagents, but the tag of the monovalent form is not spelled out; also called C01000028B02) VHH: EVQLVESGGGLVQPGGSLRLSCAASGFTLEYYAIGWFRQAPGKEREGVSCISSEGSTSYTDSVKGRFTISRDNAKNTVYLQMNSLKPEDTAVYYCATDPDRGFLGSSCDTQSHQYDYWGQGTLVTVSS | 71% |
